All figures here come from patent US20210138025A1.

System: S. aureus (MRSA SAP0017)
Type: cell-based, Staphylococcus aureus
Settings: SPOT synthesized control peptides, determined as in Table 5; Table 7
Non-standard residues stand in square brackets, D forms with d. No end group written: not given here. Agb = N=C(N)NCC[C@H](N)C(=O)O; Orn = NCCC[C@H](N)C(=O)O
Reported Endpoint: % Biofilm Inhibition (%)
Please respond with the number in % and leave the unit unwritten.

Example entries begin here.
>  <Substance>
C57 (KGKIRKIVLIRR) [Peptide C57]

>  <% Biofilm Inhibition, %>
102

$$$$
>  <Substance>
C74 (VRLIVA[Agb]RIWRR) [Peptide C74]

>  <% Biofilm Inhibition, %>
106

$$$$
>  <Substance>
C110 (VRLIVAVR[Orn]WRR-NH2; N-terminus assumed; SMILES CC[C@H](C)[C@H](NC(=O)[C@H](CC(C)C)NC(=O)[C@H](CCCNC(=N)N)NC(=O)[C@@H](N)C(C)C)C(=O)N[C@H](C(=O)N[C@@H](C)C(=O)N[C@H](C(=O)N[C@@H](CCCNC(=N)N)C(=O)N[C@@H](CCCN)C(=O)N[C@@H](Cc1c[nH]c2ccccc12)C(=O)N[C@@H](CCCNC(=N)N)C(=O)N[C@@H](CCCNC(=N)N)C(N)=O)C(C)C)C(C)C) [Peptide C110]

>  <% Biofilm Inhibition, %>
100

$$$$
>  <Substance>
C32 (QRWKKWKVLKLR) [Peptide C32]

>  <% Biofilm Inhibition, %>
102

$$$$

Problem: Fill in: % Biofilm Inhibition of C75 (VRLIVAV[Agb]IWRR; not fully specified (C-terminus); printed as VRLIVAVGbutIWRR) [Peptide C75] is ___
Result: 103

---

Tested on: planktonic methicillin resistant S. aureus
Experiment: microbe, parasite or virus in culture
Format: cell-based, Staphylococcus aureus
Conditions: planktonic methicillin resistant
No end group written: not given here.
Lab note: anything with MIC (μM) MHB below 8 µM is marked yes; values at 8 µM or higher are marked no.

Completed entries (count: 5):
>  <Substance>
KIQRRAWKQWRK-NH2 [Peptide 3014, KIQRRAWKQWRK]

>  <Class Assignment>
no

$$$$
>  <Substance>
AVKWLGWILAKK-NH2 [Peptide 3016, AVKWLGWILAKK]

>  <Class Assignment>
no

$$$$
>  <Substance>
IAWQLLWGWRVR-NH2 [Peptide 3022, IAWQLLWGWRVR]

>  <Class Assignment>
yes

$$$$
>  <Substance>
AVAKWALKLWKQ-NH2 [Peptide 3009, AVAKWALKLWKQ]

>  <Class Assignment>
no

$$$$
>  <Substance>
VQRIIWLRVKIV-NH2 [Peptide 3023, VQRIIWLRVKIV]

>  <Class Assignment>
no

$$$$

Problem: Given RRIIKILLWKLR-NH2 [Peptide 3021, RRIIKILLWKLR] , is recorded MIC (μM) MHB strictly lower than 8 µM?
Result: yes

Problem: Given RVKAIKWRKIVV-NH2 [Peptide 3012, RVKAIKWRKIVV] , is recorded MIC (μM) MHB strictly lower than 8 µM?
Result: no

Problem: Given IQRWWKVWLKVI-NH2 [Peptide 3004, IQRWWKVWLKVI] , is recorded MIC (μM) MHB strictly lower than 8 µM?
Result: yes
